Reference source for all entries: the supplement of paper PMC11208160

Attribute: recombinant UMI read abundance (log10)
ASSAY_SUMMARY: recombinant UMI read abundance after kanamycin selection (control-corrected) (log10(CPM+1)); higher = more efficient recombination; extreme values may be limits of the assay; sequences stand for … in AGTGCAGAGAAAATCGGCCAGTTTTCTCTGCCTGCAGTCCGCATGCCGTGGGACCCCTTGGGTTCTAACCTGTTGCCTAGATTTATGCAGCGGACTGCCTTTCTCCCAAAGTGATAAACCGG…AGGTTGGTTTCACT; site = the 11-nt donor
VALUE_TYPE: recombinant UMI read abundance (log10)

# SEQUENCE_ENTRY, OBSERVED_RESULT
records = [
    ("GGCAGAACATGGACCGGTTTTCCCGGTAATCCGTATTTGTG (site GGCAGAACTCA)", 1.3),
    ("CCACACACATGGACCGGTTTTCCCGGTAATCCGTATTTGTA (site CCACACACTTA)", 1.15),
    ("TTGTAGGCATGGACCGGTTTTCCCGGTAATCCGTATTTGGC (site GTGTAGGCTGC)", 0),
    ("TGTGCGGCATGGACCGGTTTTCCCGGTAATCCGTATTTGCT (site TTTGCGGCTAG)", 0.00385),
    ("GTTTGGACATGGACCGGTTTTCCCGGTAATCCGTATTTGGA (site GTTTGGACTTC)", 0.0184),
    ("TCATCGGCATGGACCGGTTTTCCCGGTAATCCGTATTTGAG (site TCATCGGCTCT)", 0.699),
]

###

ASSAY_SUMMARY: recombinant barcode read abundance after kanamycin selection (control-corrected) (log10(CPM+1)); higher = more efficient recombination; sequences stand for … in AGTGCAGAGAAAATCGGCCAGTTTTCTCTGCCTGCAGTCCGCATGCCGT…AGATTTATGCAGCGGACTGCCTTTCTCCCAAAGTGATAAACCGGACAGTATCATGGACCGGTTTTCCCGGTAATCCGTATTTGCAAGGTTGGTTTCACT; site = the 11-nt target
Attribute: recombinant barcode read abundance (log10)
VALUE_TYPE: recombinant barcode read abundance (log10)

# SEQUENCE_ENTRY, OBSERVED_RESULT
rows = [
    ("AAGCACCCTTGGGTTCTAACCTGTTGCTG (site CCTGCGACTGT)", 0.276),
    ("GCACCACCTTGGGTTCTAACCTGTTGCCT (site GCACGACCTAG)", 0.178),
    ("AGTAGGACTTGGGTTCTAACCTGTTGCAG (site AGTAGGACTCT)", 2),
]

###

ASSAY_SUMMARY: recombinant UMI read abundance after kanamycin selection (control-corrected) (log10(CPM+1)); higher = more efficient recombination; extreme values may be limits of the assay; sequences stand for … in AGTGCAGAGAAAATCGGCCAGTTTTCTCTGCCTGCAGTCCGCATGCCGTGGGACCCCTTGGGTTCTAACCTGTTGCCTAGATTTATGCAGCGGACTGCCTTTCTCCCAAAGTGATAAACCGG…AGGTTGGTTTCACT; site = the 11-nt donor

# SEQUENCE_ENTRY, recombinant UMI read abundance (log10)
rows = [
    ("GGTAGAACATGGACCGGTTTTCCCGGTAATCCGTATTTGGC (site GATAGAACTGC)", 0),
    ("GGCGCGACATGGACCGGTTTTCCCGGTAATCCGTATTTGCC (site GGCGCGACTGG)", 1.35),
    ("ACACCCTCATGGACCGGTTTTCCCGGTAATCCGTATTTGAC (site ACACCCTCTGT)", 3.42),
]
